Tested on: GABA receptor complex (GRC)
Test: [35S]TBPS binding in rat cerebral cortex P2 homogenate
Conditions: maximum inhibition of [35S]TBPS binding
Where a name gives a salt, the structure may show the parent alone.
The following molecules are shown together with reported IMAX (maximum inhibition) values.

[[record]]
molecule = "CO[C@H]1CC[C@H]2[C@@H]3CC[C@@H]4C[C@H](O)CC[C@]4(C)[C@H]3CC[C@]12C [3α-Hydroxy-17β-methoxy-5β-androstane]"
study_target = "GABA receptor complex (GRC)"
recorded_endpoint = "IMAX (maximum inhibition)"
result = "106%"

[[record]]
molecule = "C[n+]1ccc(SCC(=O)C2CCC3C4CCC5CC(O)CCC5(C)C4CCC23C)cc1 (stereo not drawn) [3α-Hydroxy-21-(pyrid-4-ylthio)-5α-pregnan-20 -one N-methyl i]"
study_target = "GABA receptor complex (GRC)"
recorded_endpoint = "IMAX (maximum inhibition)"
result = "100%"


Report measured IMAX (maximum inhibition); entry is C#CC1(O)CCC2(C)C(CCC3C2CCC2(C)C(C(=O)CSCCCOS(=O)(=O)O)CCC32)C1 (stereo not drawn) [sodium salt] 104%
